- TEST_DETAILS: Aqueous solubility of the compound in PBS at pH 7.4 with 1 % DMSO after 24 hrs by UPLC-MS analysis
- Format: physicochemical
- RUN_PARAMETERS: PBS with 1% DMSO, pH 7.4
MEASUREMENT_NAME: solubility at 24 h (µM)
Numeric only. Scale: µM

In: Any idea what solubility at 24 h was measured for COCC(=O)n1ccc2cc(-c3csc(NC(=O)c4cc(OC)cc(OC)c4)n3)ccc21 ?
Out: 0.57

In: Any idea what solubility at 24 h was measured for CC(C)NC(=O)Nc1ccc2c(c1)C(=O)N([C@H](C)CO)C[C@@H](C)[C@H](CN(C)S(=O)(=O)c1ccc(Cl)cc1)O2 ?
Out: 79
